Reference source for all entries: ChEMBL document CHEMBL1158123

Record form. Attribute: pIC50. Fill in for each entry.
test system: H9; test: Cytotoxicity against human H9 cells after 4 days; assay type: cell-based; settings: H9, 96 h
pIC50: −log10 of the molar value.

Exercise: API: value(readout= pIC50, system= H9, query= C/C=C(/C)C(=O)O[C@@H]1c2cc(OC)c(OC)c(OC)c2-c2c(cc3c(c2OC)OCO3)C[C@H](C)[C@@]1(C)O )
Solution: < 4.31

Exercise: API: value(readout= pIC50, system= H9, query= C/C=C(/C)C(=O)O[C@H]1c2cc(OC)c(OC)c(OC)c2-c2c(cc3c(c2OC)OCO3)C[C@H](C)[C@]1(C)O )
Solution: < 4.31

Exercise: API: value(readout= pIC50, system= H9, query= COc1cc2c(c(O)c1OC)-c1c(cc3c(c1OC)OCO3)C[C@H](C)[C@H](C)C2 (racemic) )
Solution: 4.35

Exercise: API: value(readout= pIC50, system= H9, query= C/C=C(\C)C(=O)O[C@@H]1c2cc(OC)c(OC)c(OC)c2-c2c(cc3c(c2OC)OCO3)C[C@H](C)[C@@]1(C)O )
Solution: < 4.31

----------
test system: H9; test: Cytotoxicity against human H9 cells after 4 days; assay type: cell-based; details: H9, 96 h
measuredProperty: pIC50
Convention used: pIC50 is expressed as -log10 of the molar concentration.

Exercise: Requested read-out: pIC50. Entry: COc1cc2c(c(O)c1OC)-c1c(cc(OC)c(OC)c1OC)C[C@@H](C)[C@@H](C)C2 [SCHISANHENOL]
Solution: 4.38

Exercise: Requested read-out: pIC50. Entry: COc1cc2c(c(OC)c1OC)-c1c(cc3c(c1O)OCO3)C[C@H](C)[C@H](C)C2
Solution: 4.33

----------
Record form. Attribute: selectivity ratio. Fill in for each entry.
experiment: Therapeutic index, ratio of IC50 for human H9 cells to EC50 for HIV1 3B; assay type: cell-based; details: read-out: Ratio IC50/EC50

Exercise: Requested read-out: selectivity ratio. Entry: COc1cc2c(c(O)c1OC)-c1c(cc(OC)c(OC)c1OC)C[C@@H](C)[C@@H](C)C2
Solution: 7.4

Exercise: Requested read-out: selectivity ratio. Entry: C/C=C(\C)C(=O)O[C@@H]1c2cc(OC)c(OC)c(OC)c2-c2c(cc3c(c2OC)OCO3)C[C@H](C)[C@@]1(C)O
Solution: 1.3

Exercise: Requested read-out: selectivity ratio. Entry: COc1cc2c(c(O)c1OC)-c1c(cc3c(c1OC)OCO3)C[C@H](C)[C@H](C)C2 (racemic)
Solution: > 68

Exercise: Requested read-out: selectivity ratio. Entry: COc1cc2c(c(OC)c1OC)-c1c(cc3c(c1O)OCO3)C[C@H](C)[C@H](C)C2
Solution: 19.4

Exercise: Requested read-out: selectivity ratio. Entry: C/C=C(/C)C(=O)O[C@H]1c2cc(OC)c(OC)c(OC)c2-c2c(cc3c(c2OC)OCO3)C[C@H](C)[C@]1(C)O
Solution: 1.2
